Target: Proto-oncogene tyrosine-protein kinase Src (SRC) (Homo sapiens)
Sequence (P12931 2-536): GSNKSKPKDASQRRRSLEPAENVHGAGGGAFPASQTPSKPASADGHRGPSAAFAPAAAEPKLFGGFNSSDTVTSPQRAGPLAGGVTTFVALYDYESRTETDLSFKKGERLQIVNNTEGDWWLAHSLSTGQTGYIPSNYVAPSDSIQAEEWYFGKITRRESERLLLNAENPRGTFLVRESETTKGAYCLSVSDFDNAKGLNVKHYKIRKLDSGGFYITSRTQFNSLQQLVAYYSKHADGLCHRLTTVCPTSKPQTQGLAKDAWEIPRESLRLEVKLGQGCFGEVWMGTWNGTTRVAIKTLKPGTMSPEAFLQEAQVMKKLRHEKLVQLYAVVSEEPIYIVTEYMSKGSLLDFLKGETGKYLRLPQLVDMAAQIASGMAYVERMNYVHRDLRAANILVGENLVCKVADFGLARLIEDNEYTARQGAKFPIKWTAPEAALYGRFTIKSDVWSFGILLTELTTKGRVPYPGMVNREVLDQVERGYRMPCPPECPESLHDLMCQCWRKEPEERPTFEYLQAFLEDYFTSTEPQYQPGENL
pIC50: −log10 of the molar value.
Recorded pIC50 for the following compounds
ASSAY ENDPOINT: pIC50

COMPOUND	TEST TARGET	RECORDED VALUE
C[C@@H]1CC[C@]2(C(=O)O)CC[C@]3(C)C(=CC[C@@H]4[C@@]5(C)C[C@@H](O)[C@@H](O)C(C)(C)[C@@H]5CC[C@]43C)[C@@H]2[C@]1(C)O [compound 99]	Proto-oncogene tyrosine-protein kinase Src (SRC) (Homo sapiens)	4.65
CC1(C)CC[C@]2(C(=O)O)CC[C@]3(C)C(=CC[C@@H]4[C@@]5(C)CC[C@H](O)C(C)(C)[C@@H]5CC[C@]43C)[C@@H]2C1 [compound 116, oleanolic acid]	Proto-oncogene tyrosine-protein kinase Src (SRC) (Homo sapiens)	4.52
CC1(C)CC[C@]2(C(=O)O)CC[C@]3(C)C(=CC[C@@H]4[C@@]5(C)C[C@@H](O)[C@H](O)C(C)(C)[C@@H]5CC[C@]43C)[C@@H]2C1 [compound 102, crataegolic acid]	Proto-oncogene tyrosine-protein kinase Src (SRC) (Homo sapiens)	4.57

Cited source: paper PMC12219075
